Measured values drawn from ChEMBL document CHEMBL1149065 for this set.

System: Saccharomyces cerevisiae
experimental_protocol: Antifungal activity against Saccharomyces cerevisiae RS 322YK (rad 52Y) assessed as DNA damaging activity
Assay type: functional, organism-based
assay_metric: IC12

| molecule_smiles | data_value |
| --- | --- |
| CC(C)C(=O)CC[C@@H](C)[C@H]1CC[C@H]2[C@@H]3CC=C4C[C@@H](O)CC[C@]4(C)[C@H]3CC[C@]12C | > 8000 µg/mL |
| CC(C)[C@@]1(CC[C@@H](C)[C@H]2CC[C@H]3[C@@H]4CC=C5C[C@@H](O)CC[C@]5(C)[C@H]4CC[C@]23C)CO1 | > 8000 µg/mL |
| CC(C)[C@@]1(CC[C@@H](C)[C@H]2CC[C@H]3[C@@H]4[C@H](O)C=C5C[C@@H](O)CC[C@]5(C)[C@H]4CC[C@]23C)CO1 | 0.2 µg/mL |
| C=C(CC[C@@H](C)[C@H]1CC[C@H]2[C@@H]3CC=C4C[C@@H](O)CC[C@]4(C)[C@H]3CC[C@]12C)C(C)C | > 8000 µg/mL |
| CC(C)C(=O)CC[C@@H](C)[C@H]1CC[C@H]2[C@@H]3[C@H](O)C=C4C[C@@H](O)CC[C@]4(C)[C@H]3CC[C@]12C | 14 µg/mL |
| C=C(CC[C@@H](C)[C@H]1CC[C@H]2[C@@H]3[C@H](O)C=C4C[C@@H](O)CC[C@]4(C)[C@H]3CC[C@]12C)C(C)C | 7 µg/mL |
| CC(C)C(=O)CC[C@@H](C)[C@H]1CC[C@H]2[C@@H]3[C@@H](O)C=C4C[C@@H](O)CC[C@]4(C)[C@H]3CC[C@]12C | > 500 µg/mL |
| C=C(CC[C@@H](C)[C@H]1CC[C@H]2[C@@H]3[C@@H](O)C=C4C[C@@H](O)CC[C@]4(C)[C@H]3CC[C@]12C)C(C)C | > 8000 µg/mL |
| CC(C)[C@@]1(CC[C@@H](C)[C@H]2CC[C@H]3[C@@H]4[C@@H](O)C=C5C[C@@H](O)CC[C@]5(C)[C@H]4CC[C@]23C)CO1 | > 8000 µg/mL |
